System: LOX IMVI melanoma
Assay: NCI tumour cell line growth inhibition, 48 h; in the data active means GI50 below about 0.43 µM; inactive means the rest
Please answer using one outcome listed in Y for active, N for inactive

Illustrative cases are given below, each with its answer.
Compound	Classification
CC(C)CCCCCCCCCCCCC(=O)NCC(=O)NC1C(C)OC(Nc2ncnc3nc[nH]c23)C(O)C1O (stereo not drawn)	Y
CC1(C)CCc2c(c(N=Nc3ccccc3F)c3ccccc3c2O)O1	N
Cc1ccc(-c2nc(/C=N/Nc3cc(C)nc4ccc(Br)cc34)c(C)o2)cc1	N
C1C[OH+]CCNCC[OH+]CC[OH+]CCN1.N.[Cl-].[Pt+4]	N
CCOC(=O)Nc1ccc2c(c1)C(=O)N(CC)c1ccccc1O2	Y

In this assay, the call recorded for CC[C@]12C=CCN3CC[C@@]4(c5ccc(OC)cc5N(C)[C@H]4[C@@](O)(C(=O)OC)[C@@H]1OC(=O)CCC(=O)O[C@H]1CC[C@H]4[C@@H]5CC[C@H]6CC(=O)CC[C@]6(C)[C@H]5CC[C@]14C)[C@@H]32 was what?
N

I'd appreciate the recorded outcome for Cc1c[nH]c(=O)n(Cc2nnc(CCC(=O)c3nc4ccccc4[nH]3)o2)c1=O from this test.
N

Dear colleague, could you share the recorded outcome for COc1cc2c3c(n(CCCn4cncn4)c(=O)c2cc1OC)-c1cc2c(cc1C3=O)OCO2 when you have a moment?
Y

----------
Test system: SW-620 colon
Assay: NCI tumour cell line growth inhibition, 48 h
Measured attribute: TGI

Compound	TGI
CCN(CC)CCCNc1n[n+]([O-])c2ccccc2[n+]1[O-]	> 100 µM
CN(CCNC(=O)c1nn(-c2ccc(Cl)cc2Cl)c2c1Cc1ccccc1-2)CCNC(=O)c1nn(-c2ccc(Cl)cc2Cl)c2c1Cc1ccccc1-2	4.88 µM
O=C1NC(=NCc2ccc(F)cc2)N/C1=C\c1ccccc1Cl	31.1 µM
Cc1ccc2[nH]c(O)c(N=Nc3ccccc3[N+](=O)[O-])c2c1	> 100 µM
O=C(O)CN1C(=O)CN=C(c2ccccn2)c2cc(Cl)ccc21	> 100 µM

Quick one: TGI of Brc1ccc(C=NC23CC4CC(CC(C4)C2)C3)cc1 ?
> 100 µM

Consider the compound O=C1CCCCN1 and give its measured TGI.
> 1120 µM

I would be grateful if you could share the reported TGI for Cc1c[nH]c(=O)n(Cc2nnc(CCC(=O)c3nc4ccccc4[nH]3)o2)c1=O .
> 100 µM

Need TGI of O=C1c2cc3c(cc2-c2c1c1ccc(F)cc1c(=O)n2C[C@H](O)[C@H](O)[C@H](O)CO)OCO3 , thanks.
> 100 µM

Given COC(=O)C1=C(C(=O)ON)[C@@H]2C=C[C@@]1([C@@H](Cc1ccccc1)Nc1ccccc1)O2 , state its recorded TGI.
3.51 µM

Form field: reported TGI of CO/C=C(\Br)c1ccc2c(c1)OCO2
> 100 µM

# lookup: TGI of C[C@]12CCc3nonc3C1CC[C@@H]1C2CC[C@@]2(C)C1CC[C@@H]2O (stereo partly specified)
> 100 µM

For CCOc1cc(C2SCC(=O)N2c2ccc3c(c2)Oc2c(Cl)c4c(c(Cl)c2=N3)Oc2cc(N3C(=O)CSC3c3ccc(O)c(OCC)c3)ccc2N=4)ccc1O (stereo unspecified) , what is its reported TGI?
> 100 µM

Look up TGI for this compound: CC(C)=Cc1cccc2[nH]c(O)c(N=Nc3ccc(S(N)(=O)=O)cc3)c12
> 25 µM

Returns the measured TGI for the input compound. Input: COc1ccc(C(=O)c2nc3ccccc3nc2N2CCN(c3ccccc3)CC2)cc1OC
> 100 µM

Form field: reported TGI of O=C(O)/C=C/c1ccc(OS(=O)(=O)O)cc1
> 100 µM

# query: TGI of entry OCCN(CCO)c1nc(N2CCCCC2)c2nc(N(CCO)CCO)nc(N3CCCCC3)c2n1
> 100 µM

Entry O=S(=O)(O)c1cc(S(=O)(=O)O)c2c(N=Nc3ccc(S(=O)(=O)O)c4ccccc34)c(O)ccc2c1 : reported TGI = ?
> 100 µM

Fill blank: measured TGI of the compound COc1ccccc1NC(=O)CC(=O)n1nc(C)c(N=Nc2ccccc2Cl)c1C is ____.
> 100 µM

Return reported TGI; argument: CNS(=O)(=O)NNS(=O)(=O)c1ccc(F)cc1
> 100 µM

Which TGI reading was recorded for the compound C/C(CC(C)(C)N1CC1)=N\NC(=O)Nc1cccc2ccccc12 ?
12.4 µM
